System: MRSA 3: MRSA DM21455 (eye)
Test: microbe, parasite or virus in culture
Settings: 3: DM21455 (eye, 24 h)
Bridge positions count the residues as written; N and C are the ends. Square brackets hold non-standard residues; d marks the D form. Peptide text beside a SMILES is read from it. d(aIle) = CC[C@H](C)[C@@H](N)C(=O)O; dNMeF = CN[C@H](Cc1ccccc1)C(=O)O
Observable: MIC (μg mL^–1)

>  <Compound>
CC[C@H](C)[C@H](NC(=O)[C@@H](Cc1ccccc1)NC)C(=O)N[C@@H](CO)C(=O)N[C@H](CCC(N)=O)C(=O)N[C@@H](C(=O)N[C@H](C(=O)N[C@@H](CO)C(=O)N[C@H]1C(=O)N[C@@H](C)C(=O)N[C@@H](C)C(=O)N[C@@H]([C@@H](C)CC)C(=O)O[C@H]1C)[C@@H](C)CC)[C@@H](C)CC [Compound 8, Ala10-teixobactin] (H-[dNMeF]IS[dQ][d(aIle)]IS[dT]AAI; ester 8-C)

>  <Readout Qualifier>
=

>  <Val>
1

$$$$
>  <Compound>
CC[C@H](C)[C@H](NC(=O)[C@@H](Cc1ccccc1)NC)C(=O)N[C@@H](CO)C(=O)N[C@H](CCC(N)=O)C(=O)N[C@@H](C(=O)N[C@H](C(=O)N[C@@H](CO)C(=O)N[C@H]1C(=O)N[C@@H](C)C(=O)N[C@@H](CC(C)C)C(=O)N[C@@H]([C@@H](C)CC)C(=O)O[C@H]1C)[C@@H](C)CC)[C@@H](C)CC [Compound 13, Leu10-teixobactin] (H-[dNMeF]IS[dQ][d(aIle)]IS[dT]ALI; ester 8-C)

>  <Readout Qualifier>
≤

>  <Val>
0.0625

$$$$
>  <Compound>
CC[C@H](C)[C@H](NC(=O)[C@@H](Cc1ccccc1)NC)C(=O)N[C@@H](CO)C(=O)N[C@H](CCC(N)=O)C(=O)N[C@@H](C(=O)N[C@H](C(=O)N[C@@H](CO)C(=O)N[C@H]1C(=O)N[C@@H](C)C(=O)N[C@@H](C(C)C)C(=O)N[C@@H]([C@@H](C)CC)C(=O)O[C@H]1C)[C@@H](C)CC)[C@@H](C)CC [Compound 11, Val10-teixobactin] (H-[dNMeF]IS[dQ][d(aIle)]IS[dT]AVI; ester 8-C)

>  <Readout Qualifier>
=

>  <Val>
0.25

$$$$
>  <Compound>
CC[C@H](C)[C@@H]1NC(=O)[C@H](C)NC(=O)[C@H](NC(=O)[C@H](CO)NC(=O)[C@@H](NC(=O)[C@H](NC(=O)[C@@H](CCC(N)=O)NC(=O)[C@H](CO)NC(=O)[C@@H](NC(=O)[C@@H](Cc2ccccc2)NC)[C@@H](C)CC)[C@@H](C)CC)[C@@H](C)CC)[C@H](C)OC(=O)[C@H]([C@@H](C)CC)NC1=O [Compound 12, Ile10-teixobactin] (H-[dNMeF]IS[dQ][d(aIle)]IS[dT]AII; ester 8-C)

>  <Readout Qualifier>
≤

>  <Val>
0.0625

$$$$

----------
Examples of molecules with documented MIC (with polysorbate 80) follow.
System: VRE 1: VRE ATCC 700802
Test: organism not typed
Conditions: VRE 1; MHB containing polysorbate 80 (0.002%, v/v); 37 °C, 24 h
Bridge positions count the residues as written; N and C are the ends. Square brackets hold non-standard residues; d marks the D form. Peptide text beside a SMILES is read from it. d(aIle) = CC[C@H](C)[C@@H](N)C(=O)O; dNMeF = CN[C@H](Cc1ccccc1)C(=O)O

>  <Molecule>
CC[C@H](C)[C@H](NC(=O)[C@@H](Cc1ccccc1)NC)C(=O)N[C@@H](CO)C(=O)N[C@H](CCC(N)=O)C(=O)N[C@@H](C(=O)N[C@H](C(=O)N[C@@H](CO)C(=O)N[C@H]1C(=O)N[C@@H](C)C(=O)N[C@@H](C(C)C)C(=O)N[C@@H]([C@@H](C)CC)C(=O)O[C@H]1C)[C@@H](C)CC)[C@@H](C)CC [Compound 11, Val10-teixobactin] (H-[dNMeF]IS[dQ][d(aIle)]IS[dT]AVI; ester 8-C)

>  <MIC (with polysorbate 80), µg/mL>
0.5

$$$$
>  <Molecule>
CC[C@H](C)[C@H](NC(=O)[C@@H](Cc1ccccc1)NC)C(=O)N[C@@H](CO)C(=O)N[C@H](CCC(N)=O)C(=O)N[C@@H](C(=O)N[C@H](C(=O)N[C@@H](CO)C(=O)N[C@H]1C(=O)N[C@@H](C)C(=O)N[C@@H](C)C(=O)N[C@@H]([C@@H](C)CC)C(=O)O[C@H]1C)[C@@H](C)CC)[C@@H](C)CC [Compound 8, Ala10-teixobactin] (H-[dNMeF]IS[dQ][d(aIle)]IS[dT]AAI; ester 8-C)

>  <MIC (with polysorbate 80), µg/mL>
4

$$$$
>  <Molecule>
CCCCCCCCCC(=O)N[C@@H](Cc1c[nH]c2ccccc12)C(=O)N[C@H](CC(N)=O)C(=O)N[C@@H](CC(=O)O)C(=O)N[C@@H]1C(=O)NCC(=O)N[C@@H](CCCN)C(=O)N[C@@H](CC(=O)O)C(=O)N[C@H](C)C(=O)N[C@@H](CC(=O)O)C(=O)NCC(=O)N[C@H](CO)C(=O)N[C@@H]([C@H](C)CC(=O)O)C(=O)N[C@@H](CC(=O)c2ccccc2N)C(=O)O[C@@H]1C [Daptomycin, reference compound]

>  <MIC (with polysorbate 80), µg/mL>
0.5

$$$$
